# credit: FireProtDB (doi:10.1093/protein/7.6.777)

B1: Subtilisin-chymotrypsin inhibitor-2A, P01053 (parent)
chain: MSSVEKKPEGVNTGAGDRHNLKTEWPELVGKSVEEAKKVILQDKPEAQIIVLPVGTIVTMEYRIDRVRLFVDKLDNIAQVPRVG

- Variants of: B1
- COND: Hordeum vulgare; pH 6.25; 25 °C; GdnHCl; Fluorescence; MES 50 mM; structure 2CI2; whole UniProt chain shown
MEASURED_ENDPOINT: unfolding free energy (kcal/mol)
Reply numerically in kcal/mol, unit not repeated.

Param item = E34A E35A ; retrieve measured unfolding free energy. 7.61

Param item = S32A E34A E35A ; retrieve measured unfolding free energy. 6.86

Param item = E35Q ; retrieve measured unfolding free energy. 6.92

Param item = E34D ; retrieve measured unfolding free energy. 6.84

Param item = E34Q ; retrieve measured unfolding free energy. 7.03

Param item = S32A ; retrieve measured unfolding free energy. 6.58

Param item = S32G E34A E35A ; retrieve measured unfolding free energy. 6.79

Param item = E34N ; retrieve measured unfolding free energy. 7.29

Param item = E35D ; retrieve measured unfolding free energy. 7.98

Param item = S32G ; retrieve measured unfolding free energy. 7.52

Param item = E35N ; retrieve measured unfolding free energy. 7.53
